System: gene editing with Cas9
Assay: Screen of 322 new SSAP proteins, gene editing activity with Cas9 (Table 5)
Format: cell-based
Conditions: normalized
Description: 322 new SSAP proteins were identified from sequence data, synthesized, and screened for activity with Cas9 and dCas9. Gene editing activities are shown below in Table 5, followed by amino acid sequences of the proteins.
Reported Cas9 with SSAP activity (normalized) values follow for various molecules
readout.type: Cas9 with SSAP activity (normalized)

molecule | readout.type | readout.number
SSAP_234: SEQ ID NO: 403; Cellulosilyticum lentocellum (protein, listed as Cellulosilyticum lentocellum) SDKKELVLKETHSRLNQLLATKMEAMPKDFNQTRFLQNCMTVLQDTKGIENCHPVSIARTLLKGAFLGLDFFQRECYAIPYGGELQFQTDYKGETKMAKKYSIRDIKDIYAKVVRKGDEFKEEIVAGQQVVDFKPLPFNDAEIIGAFAVVLYQDGGMEYETMSTKQIEGIRDNFSKMKNGLMWTKTPEEAYKKTVLRRLTKKIEKDFASIDQAKAYEESSDMQFKQDEQKQDAKDPFADAVDVEFTEETEGQVRLDGEADGAK | Cas9 with SSAP activity (normalized) | 1.140
SSAP_147: SEQ ID NO: 316; Staphylococcus felis (protein, listed as Staphylococcus felis) ANANSFKEQVSNKNEVSENNNTPQQKTKGPRQQVSDLLERMAPEIQKALPSHMSAERMARIAMTAISSNTQLLECNPRSLIGALLQASQIGLEPNTALGQAYLIPYYNRNKGEFEAQLQLSYLGLIELATRTGQYKAIYAHEVYKEDEFYYEYGLHKNLVHKPVDDPKSEPIGYYAVYHLQNGGYDFSFWTRNKVELHSGQYSKAVQKGWNSPWKTDFNAMAKKTVLKDLLKYAPKSVEVSRAVGTDSKVSEISQNGEIIDVTDYSKEEE | Cas9 with SSAP activity (normalized) | 1.062

Values were extracted from patent US20250034594A1.
